# Tested on: MARK3
# Particulars: Compound Concentration (nM):1000;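 also: KINOMEscan scanMAX binding as percent activity remaining versus control; lower means stronger binding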
Attribute Measured: Percent Control (%)
Response body: numeric value in %, unit text excluded.

COc1cc2ncn(-c3cc(O[C@H](C)c4ccccc4Cl)c(C(N)=O)s3)c2cc1OC [GSK237701A] ... 100

Please give the measured Percent Control for this molecule: `CCn1c(-c2nonc2N)nc2c(C#CC(C)(C)O)nc(OCCNC)cc21.Cl` 100

Please give the measured Percent Control for this molecule: CC(C)COC(=O)c1ccc2c(c1)/C(=C/Nc1ccc(S(N)(=O)=O)cc1)C(=O)N2 [GW416981X] 93

----------
# System: ERK5
# Construct: gene MAPK7
# Particulars: Compound Concentration (nM):1000
Attribute Measured: Percent Control (%)
Response body: numeric value in %, unit text excluded.

Worked cases, answers included:
COc1cccc(-n2ncc3c(N/N=C/c4ccncc4)ncnc32)c1 [GW784752X] ... 100
CCS(=O)(=O)c1ccc(OC)c(Nc2ncc(-c3cccc(F)c3)o2)c1 [GW621970X] ... 100
NS(=O)(=O)c1ccc(N/N=C2\C(=O)Nc3ccc(-c4cnco4)cc32)cc1 ... 98
CCn1c(-c2nonc2N)nc2c(C#CC(C)(C)O)nc(OCCNC)cc21.Cl ... 100
Cl.O=C(Nc1ccc(Oc2ccc3[nH]c(NC(=O)c4ccco4)nc3c2)cc1)Nc1cc(C(F)(F)F)ccc1F [GW683134A] ... 100

Please give the measured Percent Control for this compound: COC(=O)Nc1nc2ccc(Oc3ccc(NC(=O)Nc4cc(C(F)(F)F)ccc4F)cc3)cc2s1.Cl [GW693917A] 100

----------
# Tested on: PCTK2
# Construct: gene CDK17
# Particulars: Compound Concentration (nM):1000
The entries below are paired with their reported Percent Control.
Please report the result as a number followed by the unit.

CCn1c(-c2nonc2N)nc2c(C#CC(C)(C)O)nc(OCCNC)cc21.Cl ... 100%
COC(=O)Nc1nc2ccc(Oc3ccc(NC(=O)Nc4cc(C(F)(F)F)ccc4F)cc3)cc2s1.Cl [GW693917A] ... 72%
COc1cc(C)c(N(C)C(=O)CN(C)C)cc1Nc1nc(Nc2cccc(F)c2C(N)=O)c2cc[nH]c2n1 ... 100%
CN1CCN(C(=O)c2ccc(NC(=O)Nc3ccc(N(C)c4ccnc(Nc5ccc(CS(C)(=O)=O)cc5)n4)cc3)cc2)CC1.Cl [GW830263A] ... 91%
CN(C)CCNC(=O)Nc1ccc(N(C)c2ccnc(Nc3ccc(CS(C)(=O)=O)cc3)n2)cc1.Cl [GW830900A] ... 100%
COc1cccc(-c2c[nH]c3c(N/N=C/c4ccncc4)ncnc23)c1 [GW814408X] ... 75%
Cl.c1ccc(Cc2nc3ccc(Nc4ncnc5ccccc45)cc3[nH]2)cc1 [GR269666A] ... 100%

Moving on to the next molecule.
Please give the measured Percent Control for this molecule: `O=C(Nc1n[nH]c2nc(-c3ccc(O)cc3)c(Br)cc12)C1CC1` 62%

----------
The entries below are paired with their reported Percent Control.
# Tested on: PDGFRA
# Particulars: Compound Concentration (nM):1000
Response body: numeric value in %, unit text excluded.

Worked cases, answers included:
NS(=O)(=O)c1ccc(N/N=C2\C(=O)Nc3ccc(Cl)cc32)cc1 [GW280670X] ... 28
CC1=C(C(=O)Nc2ccc3[nH]ncc3c2)C(c2ccc3ccccc3c2)CC(=O)N1 (stereo not shown) [GSK270822A] ... 100
COc1cc(N2CCN(C(C)C)CC2)ccc1Nc1nc(Nc2ccc(F)cc2C(=O)NC[C@@H](O)CO)c2cc[nH]c2n1 [GSK1392956A] ... 91

Moving on to the next compound.
Entry Cl.O=C(Nc1ccc(Oc2ccc3[nH]c(NC(=O)c4ccccc4)nc3c2)cc1)Nc1cc(C(F)(F)F)ccc1F [GW709042A] , system PDGFRA: what Percent Control was measured? 35

----------
The entries below are paired with their reported Percent Control.
# System: NEK11
# Particulars: Compound Concentration (nM):1000

CC1=C(C(=O)Nc2ccc3[nH]ncc3c2)C(c2ccc(Cl)c(Cl)c2)CC(=O)N1 (stereo not shown) [GSK299115A] ... 86%
COc1cc(C)c(N(C)C(=O)CN(C)C)cc1Nc1nc(Nc2cccc(F)c2C(N)=O)c2cc[nH]c2n1 [GSK2219385] ... 100%
COC(=O)Nc1nc2ccc(Oc3ccc(NC(=O)Nc4cc(C(F)(F)F)ccc4F)cc3)cc2s1.Cl [GW693917A] ... 100%
COc1ccc(COc2ccc(Cc3cnc(N)nc3N)cc2OC)cc1 [GW632580X] ... 100%
Cc1cc(O)cc(C)c1/C=C/c1cncc(C(N)=O)c1 [GW435821X] ... 100%
COc1ccc2[nH]c3c4[nH]c5ccc(OC)cc5c4c4c(c3c2c1)C(=O)NC4=O [GW296115X] ... 100%
NS(=O)(=O)c1ccc(N/N=C2\C(=O)Nc3ccc(C(=O)NCc4ccncc4)cc32)cc1 [GW300657X] ... 40%
Cl.c1ccc(Cc2nc3ccc(Nc4ncnc5ccccc45)cc3[nH]2)cc1 [GR269666A] ... 100%
C/C(Nc1ccc(S(N)(=O)=O)cc1)=C1/C(=O)Nc2ccccc21 [GW335962X] ... 100%
COc1cc(/C=N/Nc2ncnc3[nH]ncc23)ccc1O [GW578748X] ... 28%

Please give the measured Percent Control for this molecule: COc1ccc2cc(-c3c(-c4ccncc4)nc(-c4ccc(S(C)(=O)=O)cc4C)n3C)ccc2c1 [SB-633825] 90%

Please give the measured Percent Control for this molecule: CC1=C(C(=O)Nc2ccc3[nH]ncc3c2)C(c2ccc3ccccc3c2)CC(=O)N1 (stereo not shown) [GSK270822A] 81%

----------
# Tested on: OSR1
# Construct: gene OXSR1
# Particulars: Compound Concentration (nM):1000
Attribute Measured: Percent Control (%)
Response body: numeric value in %, unit text excluded.

COc1ccc(COc2ccc(Cc3cnc(N)nc3N)cc2OC)cc1 [GW632580X] ... 100

Please give the measured Percent Control for this molecule: CN1CCN(C(=O)c2ccc(NC(=O)Nc3ccc(N(C)c4ccnc(Nc5ccc(CS(C)(=O)=O)cc5)n4)cc3)cc2)CC1.Cl [GW830263A] 98

Please give the measured Percent Control for this molecule: Cl.O=C(Nc1ccc(Oc2ccc3[nH]c(NC(=O)c4ccccc4)nc3c2)cc1)Nc1cc(C(F)(F)F)ccc1F [GW709042A] 100

Please give the measured Percent Control for this molecule: NS(=O)(=O)c1ccc(N/N=C2\C(=O)Nc3ccc(C(=O)NCCc4c[nH]cn4)cc32)cc1 [GW300660X] 100

----------
# Tested on: JAK1(JH2domain-pseudokinase)
# Particulars: Compound Concentration (nM):1000
# strict inequality: Percent Control < 80% yields class 1, everything else yields class 0

COc1ccccc1-c1cc(/C=C2\C(=O)Nc3ncc(Br)cc32)cc(Br)c1O [GW442130X] ... class 0
COc1cc(/C=N/Nc2ncnc3[nH]ncc23)ccc1O [GW578748X] ... class 1
COc1ccc2[nH]c3c4[nH]c5ccc(OC)cc5c4c4c(c3c2c1)C(=O)NC4=O [GW296115X] ... class 1

Now look at this one.
is_below(Percent Control, 80%) for Cl.c1ccc(Cc2nc3ccc(Nc4ncnc5ccccc45)cc3[nH]2)cc1 [GR269666A] ? class 0

----------
The entries below are paired with their reported Percent Control.
# Tested on: PRKCD
# Particulars: Compound Concentration (nM):1000
Response body: numeric value in %, unit text excluded.

Worked cases, answers included:
Cc1cc(O)cc(C)c1/C=C/c1cncc(C(N)=O)c1 [GW435821X] ... 87
Cl.c1ccc(Cc2nc3ccc(Nc4ncnc5ccccc45)cc3[nH]2)cc1 [GR269666A] ... 100
Nc1ncnc2occ(-c3ccc(NC(=O)Nc4cc(C(F)(F)F)ccc4F)cc3)c12 [GW770249X] ... 76
CC(C)COC(=O)c1ccc2c(c1)/C(=C/Nc1ccc(S(N)(=O)=O)cc1)C(=O)N2 [GW416981X] ... 100

Moving on to the next molecule.
Please give the measured Percent Control for this molecule: `O=C(Nc1n[nH]c2nc(-c3ccc(O)cc3)c(Br)cc12)C1CC1` 45

----------
# Tested on: PKN2
# Particulars: Compound Concentration (nM):1000
# strict inequality: Percent Control < 90% yields class 1, everything else yields class 0

NS(=O)(=O)c1ccc(N/N=C2\C(=O)Nc3ccc(C(=O)NCc4ccncc4)cc32)cc1 [GW300657X] ... class 1
COc1ccccc1-c1cc(/C=C2\C(=O)Nc3ncc(Br)cc32)cc(Br)c1O [GW442130X] ... class 1
NS(=O)(=O)c1ccc(N/N=C2\C(=O)Nc3ccc(C(=O)NCCc4c[nH]cn4)cc32)cc1 [GW300660X] ... class 1
O=C1Nc2ccc(C(=O)c3ccco3)cc2C1=Cc1cc(Cl)c(O)c(Cl)c1 [GW406108X] ... class 1
O=C(Nc1n[nH]c2nc(-c3ccc(O)cc3)c(Br)cc12)C1CC1 ... class 0

is_below(Percent Control, 90%) for CN(C)CCNC(=O)Nc1ccc(N(C)c2ccnc(Nc3ccc(CS(C)(=O)=O)cc3)n2)cc1.Cl [GW830900A] ? class 1

is_below(Percent Control, 90%) for COc1cc2ncn(-c3cc(O[C@H](C)c4ccccc4Cl)c(C(N)=O)s3)c2cc1OC [GSK237701A] ? class 1

is_below(Percent Control, 90%) for COc1cc(/C=N/Nc2ncnc3[nH]ncc23)ccc1O [GW578748X] ? class 0

is_below(Percent Control, 90%) for `CCn1c(-c2nonc2N)nc2c(C#CC(C)(C)O)nc(OCCNC)cc21.Cl` ? class 0

is_below(Percent Control, 90%) for Cc1cc(O)cc(C)c1/C=C/c1cncc(C(N)=O)c1 [GW435821X] ? class 1
